Assay target: human EGFR (d746-750/C797S) (Homo sapiens, UniProt P00533, C797S/DEL746-750)
Construct: purchased SignalChem
Sequence (P00533 with tags, fused parts or gaps DEL746-750/C797S): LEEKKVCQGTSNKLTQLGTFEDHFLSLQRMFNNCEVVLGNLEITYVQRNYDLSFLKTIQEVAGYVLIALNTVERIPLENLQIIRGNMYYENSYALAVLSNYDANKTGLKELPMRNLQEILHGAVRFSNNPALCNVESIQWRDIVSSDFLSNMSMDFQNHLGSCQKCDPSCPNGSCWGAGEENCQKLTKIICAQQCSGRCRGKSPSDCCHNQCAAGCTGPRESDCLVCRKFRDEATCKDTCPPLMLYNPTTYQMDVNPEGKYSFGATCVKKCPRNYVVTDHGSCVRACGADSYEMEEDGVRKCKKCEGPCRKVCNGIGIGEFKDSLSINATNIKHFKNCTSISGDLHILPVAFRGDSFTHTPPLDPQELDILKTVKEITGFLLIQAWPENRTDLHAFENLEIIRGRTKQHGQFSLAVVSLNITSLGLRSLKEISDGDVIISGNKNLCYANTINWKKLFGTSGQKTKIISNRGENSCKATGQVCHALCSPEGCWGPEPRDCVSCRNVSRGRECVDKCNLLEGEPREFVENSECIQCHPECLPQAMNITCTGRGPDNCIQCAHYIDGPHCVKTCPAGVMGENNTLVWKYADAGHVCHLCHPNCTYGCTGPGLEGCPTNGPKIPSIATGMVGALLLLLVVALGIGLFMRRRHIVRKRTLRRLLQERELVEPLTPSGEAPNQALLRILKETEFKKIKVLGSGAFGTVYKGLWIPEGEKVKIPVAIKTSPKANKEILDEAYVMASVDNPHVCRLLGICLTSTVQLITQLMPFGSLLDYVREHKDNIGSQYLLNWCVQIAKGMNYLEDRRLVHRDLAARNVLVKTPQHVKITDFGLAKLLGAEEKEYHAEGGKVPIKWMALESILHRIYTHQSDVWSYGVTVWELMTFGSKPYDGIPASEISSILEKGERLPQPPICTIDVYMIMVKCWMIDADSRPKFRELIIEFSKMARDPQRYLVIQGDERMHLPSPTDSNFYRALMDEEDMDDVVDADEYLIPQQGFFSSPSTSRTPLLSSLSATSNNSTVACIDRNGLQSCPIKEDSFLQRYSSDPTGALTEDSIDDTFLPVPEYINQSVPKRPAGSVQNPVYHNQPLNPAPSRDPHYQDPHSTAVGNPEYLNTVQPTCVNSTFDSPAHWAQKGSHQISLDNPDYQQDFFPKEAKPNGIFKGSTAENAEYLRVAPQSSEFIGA
Procedure summary: Inhibitory activity against EGFR (d746-750/C797S) kinase
Type: biochemical
Condition context: Test Example 3, Table 10; same procedures as 3) in Test Example 1

{"Cpd smiles": "C#Cc1c(-c2cnc3ccccc3c2)c2c(N)ncnc2n1C12CCC(NC(=O)c3ccc(P(C)(C)=O)cn3)(CC1)C2", "Qual": "=", "IC50 / nM": 0.7}
{"Cpd smiles": "C#Cc1c(-c2cnc3ccccc3c2)c2c(N)ncnc2n1C12CCC(NC(=O)c3cnc4ccccn34)(CC1)C2", "Qual": "=", "IC50 / nM": 0.86}
{"Cpd smiles": "C#Cc1c(-c2cnc3ccccc3c2)c2c(N)ncnc2n1C12CCC(NC(=O)OCc3cnccn3)(CC1)C2", "Qual": "=", "IC50 / nM": 0.83}
{"Cpd smiles": "C#Cc1c(-c2cnc3ccccc3c2)c2c(N)ncnc2n1C12CCC(NC(=O)c3cnc(CN4CCOCC4)cn3)(CC1)C2", "Qual": "<", "IC50 / nM": 0.3}
{"Cpd smiles": "C#Cc1c(-c2cnc3ccccc3c2)c2c(N)ncnc2n1C12CCC(NC(=O)c3cnc(CO)cn3)(CC1)C2", "Qual": "<", "IC50 / nM": 0.3}

----------
Assay target: Ba/F3-EGFR (d746-750/T790M/C797S) (Homo sapiens, UniProt P00533, DEL746-750/T790M/C797S, cells depend on it)
Sequence (P00533 with tags, fused parts or gaps DEL746-750/T790M/C797S): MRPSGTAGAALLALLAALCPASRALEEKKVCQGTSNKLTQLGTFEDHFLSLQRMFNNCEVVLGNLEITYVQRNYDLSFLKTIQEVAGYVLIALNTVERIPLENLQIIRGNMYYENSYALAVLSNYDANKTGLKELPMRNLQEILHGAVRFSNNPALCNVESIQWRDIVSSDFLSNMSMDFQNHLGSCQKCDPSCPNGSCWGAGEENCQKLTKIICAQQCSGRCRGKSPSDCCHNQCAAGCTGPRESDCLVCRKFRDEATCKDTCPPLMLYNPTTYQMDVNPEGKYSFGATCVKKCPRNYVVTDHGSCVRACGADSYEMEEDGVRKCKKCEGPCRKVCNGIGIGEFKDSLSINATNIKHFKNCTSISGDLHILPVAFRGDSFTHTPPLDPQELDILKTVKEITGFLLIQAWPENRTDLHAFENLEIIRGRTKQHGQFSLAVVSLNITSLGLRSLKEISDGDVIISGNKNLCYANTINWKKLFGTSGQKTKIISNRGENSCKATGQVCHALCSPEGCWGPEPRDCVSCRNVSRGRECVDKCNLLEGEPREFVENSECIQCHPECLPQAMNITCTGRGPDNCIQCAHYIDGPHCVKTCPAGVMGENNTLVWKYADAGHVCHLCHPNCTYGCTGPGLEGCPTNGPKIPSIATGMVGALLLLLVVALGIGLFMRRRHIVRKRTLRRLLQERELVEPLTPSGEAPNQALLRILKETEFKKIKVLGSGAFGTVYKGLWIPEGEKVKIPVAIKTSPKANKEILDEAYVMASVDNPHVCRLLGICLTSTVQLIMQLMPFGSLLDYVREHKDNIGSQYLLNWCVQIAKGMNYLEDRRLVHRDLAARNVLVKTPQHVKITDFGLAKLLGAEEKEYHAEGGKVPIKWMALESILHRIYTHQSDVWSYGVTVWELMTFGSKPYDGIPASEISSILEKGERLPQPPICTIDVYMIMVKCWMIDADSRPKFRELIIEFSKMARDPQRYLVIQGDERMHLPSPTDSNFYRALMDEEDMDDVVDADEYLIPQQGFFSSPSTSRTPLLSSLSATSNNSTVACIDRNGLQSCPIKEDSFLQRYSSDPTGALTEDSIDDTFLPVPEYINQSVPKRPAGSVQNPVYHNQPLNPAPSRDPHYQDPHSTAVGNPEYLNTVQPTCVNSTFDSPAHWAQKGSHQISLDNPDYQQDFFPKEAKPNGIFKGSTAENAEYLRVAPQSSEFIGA
Procedure summary: Growth inhibition of cell line expressing EGFR (d746-750/T790M/C797S)
Assay type: cell-based, mouse
Condition context: Test Example 2, Table 7; culture 3 days, CellTiter-Glo; read-out: BaF3_EGFR (d746-750/T790M/C797S) IC50 value

{"Compound": "C#Cc1c(-c2cnc3ccccc3c2)c2c(N)ncnc2n1C12CCC(NC(=O)c3ccnn3C)(CC1)C2", "GI50 / nM": 34}
{"Compound": "C=CC(=O)N1CC[C@@H](n2cc(-c3cnc4ccccc4c3)c3c(N)ncnc32)C1 [Comparative Example A, reference compound]", "GI50 / nM": 3660}
{"Compound": "C#Cc1c(-c2cnc3ccccc3c2)c2c(N)ncnc2n1C12CCC(NC(=O)c3ncco3)(CC1)C2", "GI50 / nM": 19}
{"Compound": "C#Cc1c(-c2cnc3ccccc3c2)c2c(N)ncnc2n1C12CCC(NC(=O)c3cccnn3)(CC1)C2", "GI50 / nM": 19}
{"Compound": "C#Cc1c(-c2cnc3ccccc3c2)c2c(N)ncnc2n1C12CCC(NC(=O)c3ccncc3)(CC1)C2", "GI50 / nM": 57}
{"Compound": "C#Cc1c(-c2cnc3ccccc3c2)c2c(N)ncnc2n1C12CCC(NC(=O)c3cnccn3)(CC1)C2", "GI50 / nM": 24}
{"Compound": "C#Cc1c(-c2cnc3ccccc3c2)c2c(N)ncnc2n1C12CCC(CNC(=O)c3ccnn3C)(CC1)C2", "GI50 / nM": 239}
{"Compound": "C#Cc1c(-c2cnc3ccccc3c2)c2c(N)ncnc2n1C12CCC(NC(=O)c3cnc(C)cn3)(CC1)C2", "GI50 / nM": 21}
{"Compound": "C#Cc1c(-c2cnc3ccccc3c2)c2c(N)ncnc2n1C12CCC(NC(=O)c3ccnnc3)(CC1)C2", "GI50 / nM": 56}

----------
Assay target: human EGFR (L858R/T790M/C797S) (Homo sapiens, UniProt P00533, C797S/L858R/T790M)
Construct: made in house; host or cells: Sf9 insect cells, baculovirus
Sequence (P00533 with tags, fused parts or gaps T790M/C797S/L858R): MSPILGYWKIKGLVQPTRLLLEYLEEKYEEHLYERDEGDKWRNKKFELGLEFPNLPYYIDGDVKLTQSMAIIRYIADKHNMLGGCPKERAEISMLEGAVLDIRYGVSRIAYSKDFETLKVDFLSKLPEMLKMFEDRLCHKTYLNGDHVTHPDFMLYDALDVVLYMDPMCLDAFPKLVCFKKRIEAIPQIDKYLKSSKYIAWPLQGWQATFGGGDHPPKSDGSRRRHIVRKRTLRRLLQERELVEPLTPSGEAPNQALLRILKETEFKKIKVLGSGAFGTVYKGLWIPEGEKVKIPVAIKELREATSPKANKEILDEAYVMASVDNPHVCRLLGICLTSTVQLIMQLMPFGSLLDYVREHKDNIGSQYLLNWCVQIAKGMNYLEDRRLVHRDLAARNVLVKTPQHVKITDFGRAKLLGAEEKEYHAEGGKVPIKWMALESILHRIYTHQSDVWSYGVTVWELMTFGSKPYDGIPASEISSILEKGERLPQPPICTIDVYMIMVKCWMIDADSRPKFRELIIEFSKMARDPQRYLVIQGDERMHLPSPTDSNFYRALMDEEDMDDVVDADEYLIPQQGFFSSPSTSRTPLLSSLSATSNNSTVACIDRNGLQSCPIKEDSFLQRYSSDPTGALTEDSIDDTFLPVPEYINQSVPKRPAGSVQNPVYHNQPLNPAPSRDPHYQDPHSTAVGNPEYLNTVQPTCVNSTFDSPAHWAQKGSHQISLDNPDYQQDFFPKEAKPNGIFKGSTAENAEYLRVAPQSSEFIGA
Procedure summary: Inhibitory activity against EGFR (L858R/T790M/C797S) kinase
Format: biochemical
Condition context: Test Example 1, Table 3; ATP 0.5 μM
Listed here: items and their measured IC50.
Quantity name: IC50 (nM)

{"Cpd smiles": "C#Cc1c(-c2cnc3ccccc3c2)c2c(N)ncnc2n1C12CCC(NC(=O)c3cnccn3)(CC1)C2", "Qual": "<", "Numeric result": 0.3}
{"Cpd smiles": "C#Cc1c(-c2cnc3ccccc3c2)c2c(N)ncnc2n1C12CCC(NC(=O)c3cc(S(C)(=O)=O)ccn3)(CC1)C2", "Qual": "=", "Numeric result": 0.33}
{"Cpd smiles": "C#Cc1c(-c2cnc3ccccc3c2)c2c(N)ncnc2n1C12CCC(NC(=O)c3ccno3)(CC1)C2", "Qual": "=", "Numeric result": 0.32}
{"Cpd smiles": "C#Cc1c(-c2cnc3ccccc3c2)c2c(N)ncnc2n1C12CCC(NC(=O)c3cnccc3OC)(CC1)C2", "Qual": "=", "Numeric result": 0.52}
{"Cpd smiles": "C#Cc1c(-c2cnc3ccccc3c2)c2c(N)ncnc2n1C12CCC(NC(=O)c3cnc(Cl)cn3)(CC1)C2", "Qual": "=", "Numeric result": 0.52}
{"Cpd smiles": "C#Cc1c(-c2cnc3ccccc3c2)c2c(N)ncnc2n1C12CCC(NC(=O)c3ccco3)(CC1)C2", "Qual": "=", "Numeric result": 0.39}
{"Cpd smiles": "C#Cc1c(-c2cnc3ccccc3c2)c2c(N)ncnc2n1C12CCC(NC(=O)c3nccs3)(CC1)C2", "Qual": "=", "Numeric result": 0.69}

----------
Assay target: Ba/F3-EGFR (WT) (Homo sapiens, UniProt P00533)
Sequence (P00533 whole entry, change not shown): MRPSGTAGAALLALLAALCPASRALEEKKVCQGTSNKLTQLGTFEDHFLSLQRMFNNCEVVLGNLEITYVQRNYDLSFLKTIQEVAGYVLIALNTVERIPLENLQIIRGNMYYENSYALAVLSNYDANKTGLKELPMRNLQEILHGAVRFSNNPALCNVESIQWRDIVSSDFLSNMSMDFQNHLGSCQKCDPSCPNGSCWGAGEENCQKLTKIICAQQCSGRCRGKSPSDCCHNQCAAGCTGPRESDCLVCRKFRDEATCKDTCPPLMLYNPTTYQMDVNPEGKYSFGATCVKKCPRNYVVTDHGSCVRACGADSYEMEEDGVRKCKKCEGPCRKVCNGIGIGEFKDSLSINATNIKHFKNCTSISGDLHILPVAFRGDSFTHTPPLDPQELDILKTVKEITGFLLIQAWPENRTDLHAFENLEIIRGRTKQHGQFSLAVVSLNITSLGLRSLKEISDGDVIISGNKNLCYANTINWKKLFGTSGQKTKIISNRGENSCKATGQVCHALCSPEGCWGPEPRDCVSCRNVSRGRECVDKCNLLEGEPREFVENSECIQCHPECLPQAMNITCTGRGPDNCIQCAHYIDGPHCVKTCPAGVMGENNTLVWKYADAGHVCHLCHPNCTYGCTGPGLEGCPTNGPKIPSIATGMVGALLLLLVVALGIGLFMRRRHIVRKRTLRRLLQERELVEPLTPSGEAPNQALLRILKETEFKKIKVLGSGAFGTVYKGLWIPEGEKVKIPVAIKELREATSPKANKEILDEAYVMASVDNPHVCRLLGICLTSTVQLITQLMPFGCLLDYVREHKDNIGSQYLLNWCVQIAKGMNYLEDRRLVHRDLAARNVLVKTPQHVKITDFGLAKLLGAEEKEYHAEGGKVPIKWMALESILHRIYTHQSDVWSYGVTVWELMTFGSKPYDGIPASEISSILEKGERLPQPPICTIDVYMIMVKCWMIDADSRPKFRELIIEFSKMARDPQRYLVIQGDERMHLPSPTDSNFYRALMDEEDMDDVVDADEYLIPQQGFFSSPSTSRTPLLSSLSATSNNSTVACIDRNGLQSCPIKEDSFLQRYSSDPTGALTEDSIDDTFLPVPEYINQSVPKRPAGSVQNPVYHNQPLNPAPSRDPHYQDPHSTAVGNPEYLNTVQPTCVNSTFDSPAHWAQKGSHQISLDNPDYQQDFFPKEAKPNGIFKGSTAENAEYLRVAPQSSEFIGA
Procedure summary: Growth inhibition of cell line expressing wild-type EGFR
Format: cell-based, mouse
Condition context: Test Example 4, Table 13; same procedures as Test Example 2; read-out: BaF3_EGFR (WT) IC50 value
// reported GI50 per item

{"Compound": "C#Cc1c(-c2cnc3ccccc3c2)c2c(N)ncnc2n1C12CCC(NC(=O)[C@@H]3CN(C)CCO3)(CC1)C2 [Example 63]", "Readout units": "nM", "GI50": 2990}
{"Compound": "C#Cc1c(-c2cnc3ccccc3c2)c2c(N)ncnc2n1C12CCC(NC(=O)c3cncc(F)c3)(CC1)C2 [Example 35]", "Readout units": "nM", "GI50": 2960}
{"Compound": "C#Cc1c(-c2cnc3ccccc3c2)c2c(N)ncnc2n1C12CCC(NC(=O)c3cnns3)(CC1)C2 [Example 18]", "Readout units": "nM", "GI50": 2480}
{"Compound": "C#Cc1c(-c2cnc3ccccc3c2)c2c(N)ncnc2n1C12CCC(NC(=O)c3ccco3)(CC1)C2 [Example 41]", "Readout units": "nM", "GI50": 3240}
{"Compound": "C#Cc1c(-c2cnc3ccccc3c2)c2c(N)ncnc2n1C12CCC(NC(=O)c3nccs3)(CC1)C2 [Example 53]", "Readout units": "nM", "GI50": 3290}
{"Compound": "C#Cc1c(-c2cnc3ccccc3c2)c2c(N)ncnc2n1C12CCC(NC(=O)c3nccn3C)(CC1)C2 [Example 23]", "Readout units": "nM", "GI50": 3190}
{"Compound": "C#Cc1c(-c2cnc3ccccc3c2)c2c(N)ncnc2n1C12CCC(NC(=O)c3ccno3)(CC1)C2 [Example 44]", "Readout units": "nM", "GI50": 2260}

----------
Assay target: human EGFR (d746-750/C797S) (Homo sapiens, UniProt P00533, C797S/DEL746-750)
Construct: purchased SignalChem
Procedure summary: Inhibitory activity against EGFR (d746-750/C797S) kinase
Type: biochemical
Condition context: Test Example 1, Table 4; ATP 14 μM, 60 minutes
pIC50: −log10 of the molar value.
I would appreciate it if you labelled entries Criterion met when pIC50 is 9 or higher, otherwise Criterion not met.

{"Cpd smiles": "C#Cc1c(-c2cnc3ccccc3c2)c2c(N)ncnc2n1C12CCC(NC(=O)c3cncn(C)c3=O)(CC1)C2", "Label value": "Criterion met"}
{"Cpd smiles": "C#Cc1c(-c2cnc3ccccc3c2)c2c(N)ncnc2n1C12CCC(O)(CC1)CC2", "Label value": "Criterion not met"}
{"Cpd smiles": "C#Cc1c(-c2cnc3ccccc3c2)c2c(N)ncnc2n1C12CCC(NC(=O)c3cnccc3OC)(CC1)C2", "Label value": "Criterion met"}
{"Cpd smiles": "C#Cc1c(-c2cnc3ccccc3c2)c2c(N)ncnc2n1C12CCC(CN(C)C)(CC1)C2", "Label value": "Criterion not met"}
{"Cpd smiles": "C#Cc1c(-c2cnc3ccccc3c2)c2c(N)ncnc2n1C12CCC(NC(=O)c3cccnn3)(CC1)C2", "Label value": "Criterion met"}
{"Cpd smiles": "C#Cc1c(-c2cnc3ccccc3c2)c2c(N)ncnc2n1C12CCC(N(C)C(=O)c3ncco3)(CC1)C2", "Label value": "Criterion not met"}

----------
Assay target: human EGFR (L858R/T790M/C797S) (Homo sapiens, UniProt P00533, C797S/L858R/T790M)
Construct: made in house; host or cells: Sf9 insect cells, baculovirus
Procedure summary: Inhibitory activity against EGFR (L858R/T790M/C797S) kinase
Type: biochemical
Condition context: Test Example 1, Table 3; ATP 0.5 μM

{"Cpd smiles": "C#Cc1c(-c2cnc3ccccc3c2)c2c(N)ncnc2n1C12CCC(NC(=O)c3cncc(OCF)n3)(CC1)C2", "Qual": "=", "IC50 [pM]": 660}
{"Cpd smiles": "C#Cc1c(-c2cnc3ccccc3c2)c2c(N)ncnc2n1C12CCC(NCC#N)(CC1)C2", "Qual": "=", "IC50 [pM]": 380}
{"Cpd smiles": "C#Cc1c(-c2cnc3ccccc3c2)c2c(N)ncnc2n1C12CCC(NC(=O)c3ccnnc3)(CC1)C2", "Qual": "<", "IC50 [pM]": 300}
{"Cpd smiles": "C#Cc1c(-c2cnc3ccccc3c2)c2c(N)ncnc2n1C12CCC(NC(=O)c3cncc(C#N)c3)(CC1)C2", "Qual": "<", "IC50 [pM]": 300}

Data provenance: patent US11786534B2
